Test system: Plasmodium berghei
Assay: Screen against P. berghei liver stage (PbLuc), transformed with Luciferase, at 10uM
Format: functional, HepG2
Settings: tested at 10 uM
About 8,600 (12%) of roughly 69,000 compounds showed an effect of 50% or more. Only a selection was taken, and strong results are over-represented in it overall.
# INHIBITION per entry
# value in %; strip the unit string

Known results for compounds:
compound=CC(C)NC(=O)Nc1ccc(CNCc2cccc(OC(F)F)c2)cc1 val=38.6
compound="NC(=O)c1ccc(C2CCCNC2)nc1 (stereo unspecified)" val=26.8
compound=O=C(O)Cn1ccc(=O)c2ccc(Cl)cc21 val=11.1

**Q:** Identify INHIBITION associated with the compound COc1cccc(COCC(=O)N2CCCC(n3cncn3)C2)c1 (stereo unspecified)
**A:** -24.2

**Q:** Identify INHIBITION associated with the compound CCN(Cc1ccccc1)C(=O)CN1CCOC(Cn2cncn2)C1 (stereo unspecified)
**A:** -122

**Q:** Identify INHIBITION associated with the compound Cc1ccc(CN(C)C(=O)CN2CCCC(Cn3cncn3)C2)cc1 (stereo unspecified)
**A:** 51.1
